- target_or_test_system: human GPR17 short isoform (Homo sapiens)
- test_summary: GPR17 cAMP assay (TR-FRET cAMP quantification, antagonist mode)
- condition_notes: CHO-K1 cells stably expressing human GPR17 short isoform; EC80 of agonist MDL29,951; forskolin 15µM; IBMX 0.5mM; 30 minutes at room temperature; read-out: hGPR17 cAMP IC50
pIC50: −log10 of the molar value.
quantity_kind: pIC50

• COc1nc(NS(=O)(=O)c2c[nH]c3c(-c4ncccn4)c(C(F)F)ccc23)nc(OC)c1OCCF = 6.74
• COc1nc(NS(=O)(=O)c2c[nH]c3c(-c4cnn(C)n4)c(Cl)ccc23)nc(OC)c1OC(F)F = 7.12
• COc1nc(NS(=O)(=O)c2c[nH]c3c(-c4nccn4C)c(F)ccc23)nc(OC)c1OCC(F)F = 7.16

(1) COc1nc(NS(=O)(=O)c2c[nH]c3c(-c4ncccc4C)c(Cl)ccc23)nc(OC)c1CC(F)F
(2) COc1nc(NS(=O)(=O)c2c[nH]c3c(-c4cnccn4)c(Br)ccc23)nc(OC)c1OC(F)F
(3) COc1nc(NS(=O)(=O)c2c[nH]c3c(-c4cn(C)cn4)c(Cl)ccc23)nc(OC)c1OCC(F)F
Please put the entries in order of rising pIC50. List the labels, following the order given in the request.
1, 3, 2
(1: 7.38, 3: 7.77, 2: 8.05)

(I) COc1nc(NS(=O)(=O)c2c[nH]c3c(-c4ncccn4)c(Cl)ccc23)nc(OC)c1OCC#N
(II) COc1nc(NS(=O)(=O)c2c[nH]c3c(-c4cncc(C)n4)c(Cl)ccc23)nc(OC)c1OC(F)F
(III) COc1nc(NS(=O)(=O)c2c[nH]c3c(-c4ncc[nH]4)c(F)ccc23)nc(OC)c1OCC(F)F
// ranking: key=pIC50, reverse=True Please reply with the labels ordered as requested. Many thanks.
II, III, I
(II: 7.51, III: 7.30, I: 6.91)

* * *

- target_or_test_system: human GPR17 short isoform (Homo sapiens, UniProt Q13304)
- Sequence (Q13304 29-367): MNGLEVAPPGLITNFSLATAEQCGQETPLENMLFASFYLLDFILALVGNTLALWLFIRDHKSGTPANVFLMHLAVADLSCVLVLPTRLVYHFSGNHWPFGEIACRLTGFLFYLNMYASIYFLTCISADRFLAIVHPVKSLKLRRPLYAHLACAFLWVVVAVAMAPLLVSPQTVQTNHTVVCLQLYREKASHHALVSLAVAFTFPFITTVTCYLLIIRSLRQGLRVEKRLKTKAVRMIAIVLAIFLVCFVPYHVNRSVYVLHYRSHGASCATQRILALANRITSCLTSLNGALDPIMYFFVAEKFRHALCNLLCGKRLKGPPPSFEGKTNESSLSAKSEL
- test_summary: GPR17 cAMP assay (TR-FRET cAMP quantification, antagonist mode)
- condition_notes: CHO-K1 cells stably expressing human GPR17 short isoform; EC80 of agonist MDL29,951; forskolin 15µM; IBMX 0.5mM; 30 minutes at room temperature; read-out: hGPR17 cAMP IC50
quantity_kind: IC50 (nM)

* COc1nc(NS(=O)(=O)c2c[nH]c3c(-c4nccnc4Cl)c(Cl)ccc23)nc(OC)c1OC(F)F | 35
* COc1nc(NS(=O)(=O)c2c[nH]c3c(-c4cccnn4)c(Cl)ccc23)nc(OC)c1CC(F)F | 42
* COc1nc(NS(=O)(=O)c2c[nH]c3c(-c4ncc(F)cn4)c(Cl)ccc23)nc(OC)c1OCC(F)F | 221
* COc1nc(NS(=O)(=O)c2c[nH]c3c(-c4ncccn4)c(C(F)F)ccc23)nc(OC)c1OC(F)F | 288
* COc1nc(NS(=O)(=O)c2c[nH]c3c(-c4ncccn4)cccc23)nc(OC)c1CC(F)F | 806
* COc1nc(NS(=O)(=O)c2c[nH]c3c(-c4ncccn4)c(Cl)ccc23)ncc1OCCF | 260
* COc1nc(NS(=O)(=O)c2c[nH]c3c(-c4cnc(C)cn4)c(Cl)ccc23)nc(OC)c1CC(F)F | 47
* COc1nc(NS(=O)(=O)c2c[nH]c3c(-c4ncccn4)c(Cl)ccc23)nc(OC)c1CCC#N | 59

(P) COc1nc(NS(=O)(=O)c2c[nH]c3c(-c4cncc(C)n4)c(Cl)ccc23)nc(OC)c1CC(F)F
(Q) COc1nc(NS(=O)(=O)c2c[nH]c3c(-c4ccn(C)n4)c(Cl)ccc23)nc(OC)c1OCCF
# compare IC50 for P vs Q ; return the one with the smaller value Return value: the label identifying the chosen record.
Q
(Q: 18 nM, P: 29 nM)

* * *

- target_or_test_system: human GPR17 short isoform (Homo sapiens)
- test_summary: GPR17 cAMP assay (TR-FRET cAMP quantification, antagonist mode)
- condition_notes: CHO-K1 cells stably expressing human GPR17 short isoform; EC80 of agonist MDL29,951; forskolin 15µM; IBMX 0.5mM; 30 minutes at room temperature; read-out: hGPR17 cAMP IC50
quantity_kind: IC50 (nM)

• COc1nc(NS(=O)(=O)c2c[nH]c3c(-c4ncccn4)c(Cl)ccc23)nc(OC)c1C1CC1C#N (stereo not drawn) [Example 24] = 61

(I) COc1nc(NS(=O)(=O)c2c[nH]c3c(-c4cnn(C)c4)c(Cl)ccc23)nc(OC)c1OCC(F)F [Example 111]
(II) COc1nc(NS(=O)(=O)c2c[nH]c3c(-c4cnn(C)n4)c(Cl)ccc23)nc(OC)c1OCC(F)F [Example 106]
Just curious, which one has the larger IC50 reading, I or II ? Return value: the label identifying the chosen record.
I
(I: 53 nM, II: 34 nM)

(P) COc1nc(NS(=O)(=O)c2c[nH]c3c(-c4ccccn4)c(Cl)ccc23)nc(OC)c1OCC(F)F [Example 19]
(Q) COc1nc(NS(=O)(=O)c2c[nH]c3c(-c4ncccn4)cccc23)nc(OC)c1OCC(F)F [Example 72]
(R) COc1nc(NS(=O)(=O)c2c[nH]c3c(-c4nccnc4F)c(Cl)ccc23)nc(OC)c1OC(F)F [Example 99]
Order the 3 compounds from highest to lowest IC50. Response format: the labels, sorted as the prompt asks.
Q, R, P
(Q: 1420 nM, R: 38 nM, P: 18 nM)

* * *

- target_or_test_system: human GPR17 short isoform (Homo sapiens)
- test_summary: GPR17 cAMP assay (TR-FRET cAMP quantification, antagonist mode)
- condition_notes: CHO-K1 cells stably expressing human GPR17 short isoform; EC80 of agonist MDL29,951; forskolin 15µM; IBMX 0.5mM; 30 minutes at room temperature; read-out: hGPR17 cAMP IC50
- From the text: GPR17 cAMP Assay Protocol: […] Changes in intracellular cyclic adenosine monophosphate (cAMP) levels were quantified using the Nano-TRF Detection Assay kit (Roche Diagnostics, Cat. No. 05214386001). This assay allows for direct cAMP quantification in a homogeneous solution. cAMP is detected based on time-resolved fluorescence energy transfer (TR-FRET) and competitive binding of ruthenylated cAMP and endogenous cAMP to an anti-cAMP monoclonal antibody labeled with AlexaFluor-700. […]
quantity_kind: IC50 (nM)

Use these answered entries as a reference point.
* COc1nc(NS(=O)(=O)c2c[nH]c3c(-c4cnn(C)c4)c(Cl)ccc23)nc(OC)c1OCCF [Example 112] | 52
* COc1nc(NS(=O)(=O)c2c[nH]c3c(-c4ncccn4)c(Cl)ccc23)nc(OC)c1Br [Example 75] | 135
* COc1nc(NS(=O)(=O)c2c[nH]c3c(-c4cnccn4)c(F)ccc23)nc(OC)c1OCC(F)F [Example 33] | 132
* COc1nc(NS(=O)(=O)c2c[nH]c3c(-c4cnc(C)cn4)c(Cl)ccc23)nc(OC)c1OC(F)F [Example 83] | 97
* COc1nc(NS(=O)(=O)c2c[nH]c3c(-c4ncccn4)c(Br)ccc23)nc(OC)c1OCCF [Example 37] | 67

(a) COc1nc(NS(=O)(=O)c2c[nH]c3c(-c4cccc(C)n4)c(Cl)ccc23)nc(OC)c1OC(F)F [Example 94]
(b) COc1nc(NS(=O)(=O)c2c[nH]c3c(-c4ncccn4)c(F)ccc23)nc(OC)c1OCCF [Example 28]
Looking at recorded values for IC50, does a or b come in lower? // return label of chosen record
a
(a: 20 nM, b: 307 nM)

* * *

- target_or_test_system: human GPR17 short isoform (Homo sapiens, UniProt Q13304)
- test_summary: GPR17 cAMP assay (TR-FRET cAMP quantification, antagonist mode)
- condition_notes: CHO-K1 cells stably expressing human GPR17 short isoform; EC80 of agonist MDL29,951; forskolin 15µM; IBMX 0.5mM; 30 minutes at room temperature; read-out: hGPR17 cAMP IC50
quantity_kind: IC50 (nM)

Please review the entries below; each comes with its answer.
- COc1nc(NS(=O)(=O)c2c[nH]c3c(-c4ccccc4)c(Cl)ccc23)nc(OC)c1OCC(F)F: 102
- COc1nc(NS(=O)(=O)c2c[nH]c3c(-c4cccnn4)c(C)ccc23)nc(OC)c1OCC(F)F: 109
- COc1nc(NS(=O)(=O)c2c[nH]c3c(-c4cnc(F)cn4)c(Cl)ccc23)nc(OC)c1OCC(F)F: 38
- COc1nc(NS(=O)(=O)c2c[nH]c3c(-c4ncccn4)c(Br)ccc23)nc(OC)c1OC(F)F: 42

(a) COc1nc(NS(=O)(=O)c2c[nH]c3c(-c4ncn(C)c4C)c(Cl)ccc23)nc(OC)c1OCC(F)F
(b) COc1nc(NS(=O)(=O)c2c[nH]c3c(-c4cnn(C)c4)c(Cl)ccc23)nc(OC)c1OC(F)F
Lab note: record which item had the higher IC50, a or b . Reply briefly: the label of your chosen item.
b
(b: 82 nM, a: 34 nM)
